Consider the following molecules; for each one, report its pIC50.
Molecular target: Na-K-ATPase
Test: Na-K-ATPase enzyme assay (inorganic phosphate liberated from ATP), pig brain
Assay type: biochemical
Details: Pig brain; read-out: ATPase Inh, IC50 Pig brain
# pIC50 = -log10(concentration in molar units)

Enter reported pIC50 observed with Na-K-ATPase for CCON=C1C=C2CCC3C(CCC4(C)C(c5ccc(=O)oc5)CCC34O)C2(C)CC1 (stereo not shown)
7.03

Enter reported pIC50 observed with Na-K-ATPase for CC(C)(C)NC(=O)OC1C=C2CCC3C(CCC4(C)C(c5ccc(=O)oc5)CCC34O)C2(C)CC1 (stereo not shown)
6.68

Enter reported pIC50 observed with Na-K-ATPase for C=CCON=C1C=C2CCC3C(CCC4(C)C(c5ccc(=O)oc5)CCC34O)C2(C)CC1 (stereo not shown)
6.94

Enter reported pIC50 observed with Na-K-ATPase for C[C@]12CCC(NCCN3CCOCC3)CC1CCC1C2CC[C@]2(C)[C@@H](c3ccc(=O)oc3)CC[C@]12O (stereo partly shown)
6.45

Enter reported pIC50 observed with Na-K-ATPase for CCNC(=O)O[C@@H]1C=C2CCC3C(CC[C@]4(C)[C@@H](c5ccc(=O)oc5)CC[C@]34O)[C@@]2(C)CC1 (stereo partly shown)
6.68

Enter reported pIC50 observed with Na-K-ATPase for C[C@]12CC[C@H](OC(=O)C3CCNC3)C=C1CCC1C2CC[C@]2(C)[C@@H](c3ccc(=O)oc3)CC[C@]12O (stereo partly shown)
6.32

Enter reported pIC50 observed with Na-K-ATPase for CC12CCC(=NOCCN3CCCCC3)C=C1CCC1C2CCC2(C)C(c3ccc(=O)oc3)CCC12O (stereo not shown)
6.79

Enter reported pIC50 observed with Na-K-ATPase for CC12CCC(OC(=O)c3ccc(C#N)cc3)C=C1CCC1C2CCC2(C)C(c3ccc(=O)oc3)CCC12O (stereo not shown)
6.34

Enter reported pIC50 observed with Na-K-ATPase for CCCCNC(=O)OC1C=C2CCC3C(CCC4(C)C(c5ccc(=O)oc5)CCC34O)C2(C)CC1 (stereo not shown)
6.69

Enter reported pIC50 observed with Na-K-ATPase for CN(C)CCN=C1CC[C@@]2(C)C(CCC3C2CC[C@]2(C)[C@@H](c4ccc(=O)oc4)CC[C@]32O)C1 (stereo partly shown)
6.77

Enter reported pIC50 observed with Na-K-ATPase for C[C@]12CCC(N)C=C1CCC1C2CC[C@]2(C)[C@@H](c3ccc(=O)oc3)CC[C@]12O (stereo partly shown)
7.03

Enter reported pIC50 observed with Na-K-ATPase for COC1O[C@@H]2C(=O)[C@H](C)OC(O[C@@H]3C=C4CCC5C(CC[C@]6(C)[C@@H](c7ccc(=O)oc7)CC[C@]56O)[C@@]4(C)CC3)[C@@H]2O1 (stereo partly shown)
6.77

Enter reported pIC50 observed with Na-K-ATPase for CN(C)/N=C1/C=C2CCC3C(CC[C@]4(C)[C@@H](c5ccc(=O)oc5)CC[C@]34O)[C@@]2(C)CC1 (stereo partly shown)
6.71

Enter reported pIC50 observed with Na-K-ATPase for COC1O[C@@H]2[C@@H](N)[C@H](C)OC(C[C@@H]3C=C4CCC5C(CC[C@]6(C)[C@@H](c7ccc(=O)oc7)CC[C@]56O)[C@@]4(C)CC3)[C@@H]2O1 (stereo partly shown)
6.69

Enter reported pIC50 observed with Na-K-ATPase for CN(C)CCON=C1C=C2CCC3C(CCC4(C)C(c5ccc(=O)oc5)CCC34O)C2(C)CC1 (stereo not shown)
7.07

Enter reported pIC50 observed with Na-K-ATPase for CC12CCC(OC(=O)C3CCNCC3)C=C1CCC1C2CCC2(C)C(c3ccc(=O)oc3)CCC12O (stereo not shown)
6.87
